Catalogue of normalized growth rate inhibition value readings, one per entry.
System: U2OS
Test: normalized growth rate inhibition value (GR) relative to untreated cells (GR value (dimensionless, 1 = untreated growth)); higher = less growth inhibition
Conditions: 1 µM; 72 h
ENDPOINT NAME: normalized growth rate inhibition value

* COC1CCN(C(=O)c2cc(Cc3n[nH]c(=O)c4ccccc34)ccc2F)CC1 [AZD2461] | 0.93
* CC(C)Oc1ccc(-c2ccccc2)cc1-n1c(CN2CCN(C(=O)COc3ccc(Cl)cc3)CC2)nc2ccccc2c1=O [Erastin 2] | -0.133
* COC(=O)c1ccc2c(c1)NC(=O)/C2=C(\Nc1ccc(N(C)C(=O)CN2CCN(C)CC2)cc1)c1ccccc1 [Bibf-1120] | 0.427
* CCc1cnn2c(NCc3ccc[n+]([O-])c3)cc(N3CCCC[C@H]3CCO)nc12 [Dinaciclib] | -0.373
* CCNC(=O)c1noc(-c2cc(C(C)C)c(O)cc2O)c1-c1ccc(CN2CCOCC2)cc1 [Luminespib] | -0.331
* CC[C@@H]1C(=O)N(C)c2cnc(Nc3ccc(C(=O)NC4CCN(C)CC4)cc3OC)nc2N1C1CCCC1 [BI2536] | -0.415
* CC[C@@]1(O)C(=O)OCc2c1cc1n(c2=O)Cc2cc3ccccc3nc2-1 [Camptothecin] | -0.211
* O=C(NCCCNc1nc(Nc2cccc(NC(=O)N3CCCC3)c2)ncc1I)c1cccs1 [BX795] | 0.723

* * *

System: U2OS
Assay: normalized growth rate inhibition value (GR) relative to untreated cells (GR value (dimensionless, 1 = untreated growth)); higher = less growth inhibition
Details: 0.00316 µM; 72 h
ENDPOINT NAME: normalized growth rate inhibition value

- CC(C)[C@]12O[C@H]1[C@@H]1O[C@]13[C@]1(O[C@H]1C[C@H]1C4=C(CC[C@@]13C)C(=O)OC4)[C@@H]2O [Triptolide]: 0.633
- CC[C@]1(O)C[C@H]2CN(CCc3c([nH]c4ccccc34)[C@@](C(=O)OC)(c3cc4c(cc3OC)N(C=O)[C@H]3[C@@](O)(C(=O)OC)[C@H](OC(C)=O)[C@]5(CC)C=CCN6CC[C@]43[C@@H]65)C2)C1 [Vincristine]: 0.251
- COCC[n+]1c2c(n(Cc3cnccn3)c1C)C(=O)c1ccccc1C2=O [YM155]: 0.777
- CC[C@@H]1C(=O)N(C)c2cnc(Nc3ccc(C(=O)NC4CCN(C)CC4)cc3OC)nc2N1C1CCCC1 [BI2536]: 0.0188
- CC[C@]1(O)C[C@@H]2CN(CCc3c([nH]c4ccccc34)[C@@](C(=O)OC)(c3cc4c(cc3OC)N(C)[C@H]3[C@@](O)(C(=O)OC)[C@H](OC(C)=O)[C@]5(CC)C=CCN6CC[C@]43[C@@H]65)C2)C1 [Vinblastine]: 0.057
- CC[C@@]1(O)C(=O)OCc2c1cc1n(c2=O)Cc2cc3ccccc3nc2-1 [Camptothecin]: 0.651
- Cc1ccc(C(=O)N(CCCN)[C@@H](c2oc3cc(Cl)ccc3c(=O)c2Cc2ccccc2)C(C)C)cc1: 0.205

* * *

Test system: U2OS
Assay: fractional viability (live cells / total cells); higher = less cell death
Details: 0.01 µM; 72 h
Catalogue of fractional viability readings, one per entry.
ENDPOINT NAME: fractional viability

* Cn1nnc2c(C(N)=O)ncn2c1=O [Temozolamide] | 0.982
* O=C(O)CCCc1ccc(N(CCCl)CCCl)cc1 | 0.983
* O=C(NCCCNc1nc(Nc2cccc(NC(=O)N3CCCC3)c2)ncc1I)c1cccs1 | 0.982
* Cc1[nH]c2ccccc2c1CCNCc1ccc(/C=C/C(=O)NO)cc1 | 0.983
* CNc1cc(-c2cccc(Cl)c2Cl)nc(N)n1 | 0.973
* CC(C)Oc1ccc(-c2ccccc2)cc1-n1c(CN2CCN(C(=O)COc3ccc(Cl)cc3)CC2)nc2ccccc2c1=O | 0.97
* C[C@H]1[C@H](OC(=O)CCC(=O)O)O[C@@H]2O[C@@]3(C)CC[C@H]4[C@H](C)CC[C@@H]1[C@@]24OO3 [Artesunate] | 0.98
* Cc1cn(-c2cc(NC(=O)c3ccc(C)c(Nc4nccc(-c5cccnc5)n4)c3)cc(C(F)(F)F)c2)cn1 | 0.984
* CC[C@@H]1C(=O)N(C)c2cnc(Nc3ccc(C(=O)NC4CCN(C)CC4)cc3OC)nc2N1C1CCCC1 | 0.45
* CC[C@@]1(O)C(=O)OCc2c1cc1n(c2=O)Cc2cc3ccccc3nc2-1 | 0.91
* O=C(O)CCNc1cc(N2CCc3ccccc3CC2)nc(-c2ccccn2)n1 | 0.979
* C=CCn1c(=O)c2cnc(Nc3ccc(N4CCN(C)CC4)cc3)nc2n1-c1cccc(C(C)(C)O)n1 | 0.978
* COC1CCN(C(=O)c2cc(Cc3n[nH]c(=O)c4ccccc34)ccc2F)CC1 | 0.974
* CC1CCc2cc(F)cc3c(=O)c(C(=O)O)cn1c23 (stereo unspecified) | 0.98
* CNC(=O)c1ccccc1Sc1ccc2c(/C=C/c3ccccn3)n[nH]c2c1 | 0.977
* C#Cc1cccc(Nc2ncnc3cc(OCCOC)c(OCCOC)cc23)c1 | 0.973

* * *

Test system: U2OS
Assay: fractional viability (live cells / total cells); higher = less cell death
Settings: 0.01 µM; 72 h
Catalogue of fractional viability readings, one per entry.
ENDPOINT NAME: fractional viability

• O=C(/C=C/c1cccc(S(=O)(=O)Nc2ccccc2)c1)NO [Belinostat] = 0.969
• COC(=O)c1ccc2c(c1)NC(=O)/C2=C(\Nc1ccc(N(C)C(=O)CN2CCN(C)CC2)cc1)c1ccccc1 [Bibf-1120] = 0.981
• Nc1ccccc1NC(=O)c1ccc(CNC(=O)OCc2cccnc2)cc1 [Entinostat] = 0.979
• O=C(Nc1ccc([N+](=O)[O-])cc1Cl)c1cc(Cl)ccc1O [Nicolsamide] = 0.98
• CC[C@@H](C(=O)[C@@H](C)[C@@H](O)[C@H](C)[C@@H]1O[C@@H]([C@@H](CC)C(=O)O)CC[C@@H]1C)[C@H]1O[C@]2(C=C[C@@H](O)[C@]3(CC[C@@](C)([C@H]4CC[C@](O)(CC)[C@H](C)O4)O3)O2)[C@H](C)C[C@@H]1C [Salinomycin] = 0.982
• Cc1ccc(Nc2nccc(N(C)c3ccc4c(C)n(C)nc4c3)n2)cc1S(N)(=O)=O [Pazopanib] = 0.98
• CCC(=O)N1CCN(c2ccc(-n3c(=O)ccc4cnc5ccc(-c6cnc7ccccc7c6)cc5c43)cc2C(F)(F)F)CC1 [Torin 1] = 0.977

* * *

Tested on: U2OS
Test: fractional viability (live cells / total cells); higher = less cell death
Conditions: 3.16 µM; 72 h
Catalogue of fractional viability readings, one per entry.
ENDPOINT NAME: fractional viability

• O=C(O)CCNc1cc(N2CCc3ccccc3CC2)nc(-c2ccccn2)n1 = 0.974
• Cc1[nH]c2ccccc2c1CCNCc1ccc(/C=C/C(=O)NO)cc1 = 0.271
• C[C@@H]1O[C@@H](O[C@H]2C[C@@H](O)[C@]3(CO)[C@H]4[C@H](O)C[C@]5(C)[C@@H](C6=CC(=O)OC6)CC[C@]5(O)[C@@H]4CC[C@]3(O)C2)[C@H](O)[C@H](O)[C@H]1O = 0.142
• CO[C@@H]1C[C@@H](C[C@H]2CC[C@H](C)[C@H]([C@@H](C)C(=O)O)O2)O[C@]2(O[C@](C)([C@H]3CC[C@@](C)([C@@H]4O[C@@H]([C@H]5O[C@@](O)(CO)[C@H](C)C[C@@H]5C)C[C@@H]4C)O3)C[C@H]2C)[C@@H]1C = 0.661
• COC(=O)c1ccc2c(c1)NC(=O)/C2=C(\Nc1ccc(N(C)C(=O)CN2CCN(C)CC2)cc1)c1ccccc1 = 0.092
• CNc1ccc2oc(C[C@H]3O[C@@]4(CC[C@H]3C)O[C@H]([C@H](C)C(=O)c3ccc[nH]3)[C@H](C)C[C@H]4C)nc2c1C(=O)O = 0.848

* * *

System: U2OS
Experiment: fractional viability (live cells / total cells); higher = less cell death
Conditions: 0.100144 µM; 72 h
ENDPOINT NAME: fractional viability

• Nc1ccc(-c2ccc3ncc4ccc(=O)n(-c5cccc(C(F)(F)F)c5)c4c3c2)cn1 = 0.987
• CC(=O)c1c(C)c2cnc(Nc3ccc(N4CCNCC4)cn3)nc2n(C2CCCC2)c1=O = 0.984
• CC(=O)O[C@H]1C(=O)[C@@]2(C)[C@H]([C@H](OC(=O)c3ccccc3)[C@]3(O)C[C@H](OC(=O)[C@H](O)[C@@H](NC(=O)c4ccccc4)c4ccccc4)C(C)=C1C3(C)C)[C@]1(OC(C)=O)CO[C@@H]1C[C@@H]2O = 0.759

* * *

Catalogue of normalized growth rate inhibition value readings, one per entry.
Test system: U2OS
Assay: normalized growth rate inhibition value (GR) relative to untreated cells (GR value (dimensionless, 1 = untreated growth)); higher = less growth inhibition
Settings: 0.100289 µM; 72 h
ENDPOINT NAME: normalized growth rate inhibition value

* CN(C)CC[C@H](CSc1ccccc1)Nc1ccc(S(=O)(=O)NC(=O)c2ccc(N3CCN(Cc4ccccc4-c4ccc(Cl)cc4)CC3)cc2)cc1[N+](=O)[O-] [ABT-737] | 0.94
* CN1CCN(CCOc2cc(OC3CCOCC3)c3c(Nc4c(Cl)ccc5c4OCO5)ncnc3c2)CC1 [Saracatinib] | 0.978
* N.N.[Cl][Pt][Cl] [Cisplatin] | 0.901
* Cc1nn(C)c(COc2ccc(N3CCN(S(=O)(=O)N(C)C)CC3)cc2)c1-c1cccc2c(CCCOc3cccc4ccccc34)c(C(=O)O)n(CCN3CCOCC3)c12 | 0.934
* COc1cc([C@@H]2c3cc4c(cc3[C@@H](O[C@@H]3O[C@@H]5CO[C@@H](C)O[C@H]5[C@H](O)[C@H]3O)[C@H]3COC(=O)[C@H]23)OCO4)cc(OC)c1O [Etoposide] | 0.524
* Cc1c(N)nc([C@H](CC(N)=O)NC[C@H](N)C(N)=O)nc1C(=O)N[C@H](C(=O)N[C@H](C)[C@@H](O)[C@H](C)C(=O)N[C@H](C(=O)NCCc1nc(-c2nc(C(=O)NCCC[S+](C)C)cs2)cs1)[C@@H](C)O)[C@@H](OC1OC(CO)C(O)C(O)C1OC1OC(CO)C(O)C(OC(N)=O)C1O)c1cnc[nH]1 (stereo partly specified) [Bleomycin] | 0.88
